biological target: T1, recombinant human Siglec-8 extracellular domain (ECD) (human, UniProt Q9NYZ4 17-363); assay: ELISA, coated Siglec-8 ECD
T1 construct: extracellular domain; also called Siglec-8 ECD; full Siglec-8 ECD
T1 sequence (Q9NYZ4 17-363): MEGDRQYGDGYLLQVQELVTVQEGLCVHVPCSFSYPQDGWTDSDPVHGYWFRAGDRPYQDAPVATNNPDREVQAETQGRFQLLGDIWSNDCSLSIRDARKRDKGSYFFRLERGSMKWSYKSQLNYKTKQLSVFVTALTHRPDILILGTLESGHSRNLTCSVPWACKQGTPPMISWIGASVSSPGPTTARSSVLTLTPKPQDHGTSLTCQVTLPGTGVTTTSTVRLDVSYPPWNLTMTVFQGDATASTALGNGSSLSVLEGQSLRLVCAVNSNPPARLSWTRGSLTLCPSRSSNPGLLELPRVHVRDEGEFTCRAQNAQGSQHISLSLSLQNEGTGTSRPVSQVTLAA
This section presents binders with their documented EC50 values.
Give the quantity in nM, number only.

BINDER: HCKE (antibody, human IgG1, V domains shown, human IgG1/kappa) VH: EVQLVESGGGLVQPGGSLRLSCAVSGFSLTIYGAHWVRQAPGKGLEWVSVIWAGGSTNYNSALMSRFTISKDNSKNTVYLQMNSLRAEDTAVYYCARDGSSPYYYSMEYWGQGTTVTVSS VL: EIVLTQSPATLSLSPGERATLSCSATSSVSYMHWFQQKPGQAPRLLIYSTSNLASGVPARFSGSGSGTDFTLTISSLEPEDFAVYYCQQRSSYPFTFGPGTKLDIK
EC50 [nM]: 0.059

Switching to the query record.
query: Give reported EC50 value for RHE Y-VKD (antibody, human IgG1, V domains shown, human IgG1/kappa) VH: EVQLVESGGGLVQPGGSLRLSCAASGFSLTIYGAHWVRQAPGKGLEWVGVIWAGGSTNYNSALMSRFTISKDNSKNTVYLQMNSLRAEDTAVYYCARDGSSPYYYSMEVWGQGTTVTVSS VL: EIVLTQSPATLSLSPGERATLSCSATSSVSYMHWFQQKPGQAPRLWIYSTSNLASGIPARFSGSGSGTDFTLTISSLEPEDFAVYYCQQRSSYPFTFGPGTKLDIK
result: 0.283
